B1: RHOBTB2 (parent)
chain: LYTGELDENERDLMHIAHIAELLE

variants of: B1; assay: protein stability index of a GFP-peptide fusion (GPS, HEK-293T) (PSI 1-6); higher = more stable; settings: c terminus: a fixed tail appended;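 note: lentivirally expressed fusions sorted by FACS into six bins by GFP to DsRed ratio, PSI derived from sequencing read proportions per bin multiplied by bin number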
Listed variants paired with reported protein stability index
// return a plain number; no unit text

- variant.id: "E24F"
  protein stability index: 1.79
- variant.id: "E21L"
  protein stability index: 1.92
- variant.id: "A20K"
  protein stability index: 2.99

Query: For the variant shown here, A20R , give the reported protein stability index.
Reply: 3.22

Query: For the variant shown here, I19C , give the reported protein stability index.
Reply: 3.3

Query: For the variant shown here, G4N , give the reported protein stability index.
Reply: 2.05

Query: For the variant shown here, D7M , give the reported protein stability index.
Reply: 1.97

Query: For the variant shown here, N9P , give the reported protein stability index.
Reply: 2.03

Query: For the variant shown here, D7W , give the reported protein stability index.
Reply: 1.64

Query: For the variant shown here, H18Q , give the reported protein stability index.
Reply: 1.82

Query: For the variant shown here, A17D , give the reported protein stability index.
Reply: 3.28
